Measured values drawn from the supplement of paper PMC9112550 for this set.

# System: Escherichia coli TOP10
# assay protocol: shrunken log2 fold change of peptide-encoding DNA abundance (4.5 h post-induction vs induction); higher = less antimicrobial activity (less host growth inhibition)
# assay context: time post-induction: 4.5 h; library: site-saturation at positions 5, 18, 19, 20
readout label: shrunken log2 fold change
Enter the number alone.

**Query** Param request: shrunken log2 fold change | system Escherichia coli TOP10 | item RRIRCRPPRLPRPRPRPRENPRP
**Result** 0.439

**Query** Output reported shrunken log2 fold change of the sequence RRIRSRPPRLPRPRPRPVYTPRP on Escherichia coli TOP10.
**Result** -0.105

**Query** Please respond with reported shrunken log2 fold change (system Escherichia coli TOP10) for RRIRFRPPRLPRPRPRPPFYPRP .
**Result** -0.462

**Query** Report its shrunken log2 fold change with Escherichia coli TOP10 as the test system: RRIRMRPPRLPRPRPRPYCAPRP
**Result** -0.515

**Query** Find the measured shrunken log2 fold change of RRIRPRPPRLPRPRPRPPPIPRP with Escherichia coli TOP10 as test system.
**Result** 0.374

**Query** Give reported shrunken log2 fold change for RRIRQRPPRLPRPRPRPDLHPRP (Escherichia coli TOP10)
**Result** 0.00152

**Query** Return reported shrunken log2 fold change for target or system Escherichia coli TOP10, item RRIRNRPPRLPRPRPRPACVPRP .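 Also: peptides expressed intracellularly from a pBAD plasmid library in pooled LB shake-flask culture, induced with 0.3% L-arabinose, DNA abundance read by NGS, three biological replicates, DESeq2 with apeglm shrinkage.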
**Result** 0.0235

**Query** Under Escherichia coli TOP10, report shrunken log2 fold change for RRIRERPPRLPRPRPRPMEMPRP
**Result** 0.0606
